# assayTarget: human orexin-2 receptor (OX2R) (Homo sapiens, UniProt O43614)
# Sequence (O43614 1-444): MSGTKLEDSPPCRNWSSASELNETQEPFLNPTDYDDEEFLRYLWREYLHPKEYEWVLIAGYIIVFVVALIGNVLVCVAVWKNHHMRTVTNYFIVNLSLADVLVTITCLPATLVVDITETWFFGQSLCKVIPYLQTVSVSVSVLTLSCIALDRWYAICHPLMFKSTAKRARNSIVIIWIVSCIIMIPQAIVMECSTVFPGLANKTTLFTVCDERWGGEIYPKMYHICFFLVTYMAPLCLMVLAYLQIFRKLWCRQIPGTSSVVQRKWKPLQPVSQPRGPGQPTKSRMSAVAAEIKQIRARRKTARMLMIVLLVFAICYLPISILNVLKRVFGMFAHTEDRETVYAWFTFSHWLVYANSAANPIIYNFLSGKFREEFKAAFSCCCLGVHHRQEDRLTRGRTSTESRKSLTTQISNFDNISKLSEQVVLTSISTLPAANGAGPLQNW
# methodDescription: Human OX2R IP1 assay
# conditions: T-Rex CHO cells stably overexpressing human OX2R; IP1 accumulation (HTRF); 1 hr at 37 degrees C
Measured EC50 by item
parameter: EC50

CS(=O)(=O)N[C@@H]1CCN(C(=O)C2CCC2)C[C@@H]1OCC1CCC(c2ccccc2)CC1 (single isomer, unassigned) [Compound 66] | 0.1 to 10 µM
C[C@H](C1COC1)N1CC[C@@H](NS(C)(=O)=O)[C@@H](OCC2CCC(c3ccccc3)CC2)C1 (single isomer, unassigned) [Compound 64] | > 10 µM
CS(=O)(=O)N[C@H]1CCN(CC2COC2)C[C@H]1OC[C@H]1CC[C@@H](c2ccccc2)CC1 (single isomer, unassigned) [Compound 57] | > 10 µM
Cn1ccnc1N1CC[C@@H](NS(C)(=O)=O)[C@@H](OC[C@H]2CC[C@@H](c3ccccc3)CC2)C1 (single isomer, unassigned) [Compound 54] | 0.1 to 10 µM
COC(=O)N1CC[C@H](NS(C)(=O)=O)[C@H](OC[C@H]2CC[C@@H](c3ccccc3)CC2)C1 (single isomer, unassigned) [Compound 40] | 0.1 to 10 µM
CS(=O)(=O)N[C@H]1CCN(C(=O)C2CCC2)C[C@H]1OCC1CCC(c2ccccc2)CC1 (single isomer, unassigned) [Compound 65] | < 0.1 µM
CS(=O)(=O)N[C@H]1CCN(c2ncco2)C[C@H]1OC[C@H]1CC[C@@H](c2ccccc2)CC1 (single isomer, unassigned) [Compound 39] | 0.1 to 10 µM
COC(=O)N1CC[C@@H](NS(C)(=O)=O)[C@@H](OC[C@H]2CC[C@@H](c3ccccc3)CC2)C1 (single isomer, unassigned) [Compound 41] | > 10 µM
CS(=O)(=O)N[C@@H]1CCN(C2COC2)C[C@@H]1OC[C@H]1CC[C@@H](c2ccccc2)CC1 (single isomer, unassigned) [Compound 52] | > 10 µM
CS(=O)(=O)N[C@@H]1CCN(C(=O)C2(O)CCC2)C[C@@H]1OCC1CCC(c2ccccc2)CC1 (single isomer, unassigned) [Compound 44] | > 10 µM
CS(=O)(=O)N[C@@H]1CCN(C(=O)C2(F)CCC2)C[C@@H]1OCC1CCC(c2ccccc2)CC1 (single isomer, unassigned) [Compound 50] | 0.1 to 10 µM
CS(=O)(=O)N[C@@H]1CCN(CC2COC2)C[C@@H]1OC[C@H]1CC[C@@H](c2ccccc2)CC1 (single isomer, unassigned) [Compound 58] | > 10 µM
CC1(C(=O)N2CC[C@H](NS(C)(=O)=O)[C@H](OCC3CCC(c4ccccc4)CC3)C2)COC1 (single isomer, unassigned) [Compound 45] | 0.1 to 10 µM
Cn1ccnc1N1CC[C@H](NS(C)(=O)=O)[C@H](OCC2CCC(c3ccccc3)CC2)C1 (single isomer, unassigned) [Compound 53] | > 10 µM
C[C@H](C1COC1)N1CC[C@H](NS(C)(=O)=O)[C@H](OCC2CCC(c3ccccc3)CC2)C1 (single isomer, unassigned) [Compound 63] | > 10 µM
COC1(C(=O)N2CC[C@H](NS(C)(=O)=O)[C@H](OC[C@H]3CC[C@@H](c4ccccc4)CC3)C2)CCC1 [Compound 42] | 0.1 to 10 µM
Cn1cnc(N2CC[C@@H](NS(C)(=O)=O)[C@@H](OC[C@H]3CC[C@@H](c4ccccc4)CC3)C2)c1 (single isomer, unassigned) [Compound 60] | > 10 µM
C[C@@H](C1COC1)N1CC[C@@H](NS(C)(=O)=O)[C@@H](OCC2CCC(c3ccccc3)CC2)C1 (single isomer, unassigned) [Compound 62] | > 10 µM
CS(=O)(=O)N[C@@H]1CCN(c2cccnn2)C[C@@H]1OC[C@H]1CC[C@@H](c2ccccc2)CC1 (single isomer, unassigned) [Compound 56] | 0.1 to 10 µM
CS(=O)(=O)N[C@H]1CCN(CC2(F)CCC2)C[C@H]1OCC1CCC(c2ccccc2)CC1 (single isomer, unassigned) [Compound 69] | 0.1 to 10 µM
CC(C)(O)C(=O)N1CC[C@@H](NS(C)(=O)=O)[C@@H](OC[C@H]2CC[C@@H](c3ccccc3)CC2)C1 (single isomer, unassigned) [Compound 38] | 0.1 to 10 µM
CS(=O)(=O)N[C@@H]1CCN(C(=O)C2(F)CC2)C[C@@H]1OCC1CCC(c2ccccc2)CC1 (single isomer, unassigned) [Compound 68] | 0.1 to 10 µM

Data provenance: patent US20250223260A1
